- EXPERIMENTAL_DETAILS: Artificial membrane permeability (AMP)
- Format: in vitro ADME
- STUDY_CONDITIONS: PAMPA, pH 7.4
ASSAY_ENDPOINT: Papp at 3 h (×10⁻⁶ cm/s)

These recorded examples may help you get a feel for the data.
COC(=O)c1ccc(N2C(=O)c3[nH]nc(CC(C)C)c3C2c2ccc(F)cc2)cc1 (stereo not shown)	41
CC(C)Cc1n[nH]c2c1C(c1ccc(F)cc1)N(c1ccc3c(c1)OCCO3)C2=O (stereo not shown)	51
CC(C)Cc1n[nH]c2c1C(c1ccc(F)cc1)N(C1CCOCC1)C2=O (stereo not shown)	49
COc1ccc(N2C(=O)c3[nH]nc(CC(C)C)c3C2c2cccc(F)c2)cc1 (stereo not shown)	37
CC(C)Cc1n[nH]c2c1C(c1ccc(F)cc1)N(c1ccc(Br)cc1)C2=O (stereo not shown)	32
CC(C)Cc1n[nH]c2c1C(c1ccc(F)cc1)N(c1ccc(O)cc1)C2=O (stereo not shown)	28.5
COc1ccc(N2C(=O)c3[nH]nc(CC(C)C)c3C2c2ccccc2Br)cc1 (stereo not shown)	30
COc1ccc(N2C(=O)c3[nH]nc(CC(C)C)c3C2c2cccc(Br)c2)cc1 (stereo not shown)	37
COc1cccc(N2C(=O)c3[nH]nc(CC(C)C)c3C2c2ccc(F)cc2)c1 (stereo not shown)	37
CC(C)Cc1n[nH]c2c1C(c1ccc(F)cc1)N(c1ccc(F)cc1)C2=O (stereo not shown)	12

(I) COc1ccc(N2C(=O)c3[nH]nc(CC(C)C)c3C2c2ccncc2)cc1 (stereo not shown)
(II) COc1ccc(N2C(=O)c3[nH]nc(CC(C)C)c3C2c2nccs2)cc1 (stereo not shown)
Ask: Between I and II , whose measured Papp at 3 h reads higher? Please indicate the selected item by its label.
Result: II
(II: 42 ×10⁻⁶ cm/s, I: 23 ×10⁻⁶ cm/s)

(A) COc1ccc(N2C(=O)c3[nH]nc(-c4ccc5c(c4)CCC5)c3C2c2ccc(F)cc2)cc1 (stereo not shown)
(B) COc1ccc(N2C(=O)c3[nH]nc(CC(C)C)c3C2c2ccsc2)cc1 (stereo not shown)
(C) COc1ccc(N2C(=O)c3[nH]nc(CC(C)C)c3C2c2ccc(C(F)(F)F)cc2)cc1 (stereo not shown)
Ask: # rank_down: sort by Papp at 3 h, max first Answer format: the labels, in the requested order.
Result: B, C, A
(B: 47 ×10⁻⁶ cm/s, C: 21 ×10⁻⁶ cm/s, A: 13 ×10⁻⁶ cm/s)

###

- EXPERIMENTAL_TARGET: human serum albumin (Homo sapiens)
- Sequence (P02768 25-609): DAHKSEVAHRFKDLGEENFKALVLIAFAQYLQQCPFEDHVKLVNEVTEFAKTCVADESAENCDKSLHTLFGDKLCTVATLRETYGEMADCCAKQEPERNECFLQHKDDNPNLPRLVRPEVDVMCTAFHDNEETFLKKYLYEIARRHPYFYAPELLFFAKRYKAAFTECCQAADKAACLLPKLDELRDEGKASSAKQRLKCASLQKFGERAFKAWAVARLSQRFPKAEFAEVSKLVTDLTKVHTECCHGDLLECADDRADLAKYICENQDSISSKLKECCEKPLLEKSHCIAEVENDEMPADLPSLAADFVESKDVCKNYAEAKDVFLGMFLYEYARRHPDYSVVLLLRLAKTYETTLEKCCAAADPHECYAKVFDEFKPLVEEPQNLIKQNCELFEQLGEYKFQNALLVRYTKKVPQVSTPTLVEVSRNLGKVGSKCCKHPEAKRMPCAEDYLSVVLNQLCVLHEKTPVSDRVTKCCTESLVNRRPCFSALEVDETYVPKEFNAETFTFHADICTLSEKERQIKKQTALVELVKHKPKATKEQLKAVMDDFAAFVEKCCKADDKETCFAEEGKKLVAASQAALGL
- EXPERIMENTAL_DETAILS: Human serum albumin (HSA) binding, chromatographic
- Assay type: in vitro ADME
ASSAY_ENDPOINT: HSA Binding (%)

COc1ccc(N2C(=O)c3[nH]nc(CC(C)C)c3C2c2ccc(F)cn2)cc1 (centres unmarked)	90.2
COc1ccc(N2C(=O)c3[nH]nc(CC(C)C)c3C2c2ccccc2OC)cc1F (centres unmarked)	95.9
CC(C)Cc1n[nH]c2c1C(c1ccc(F)cc1)N(c1ccc(Br)cc1)C2=O (centres unmarked)	97.9
Cc1cc(F)ccc1C1c2c(CC(C)C)n[nH]c2C(=O)N1c1ccc(N(C)C)cc1 (centres unmarked)	96.5
COc1ccc(N2C(=O)c3[nH]nc(CC(C)C)c3C2c2cccc(OC)c2)cc1 (centres unmarked)	95
COc1ccc(N2C(=O)c3[nH]nc(CC(C)C)c3C2c2ccsc2)cc1 (centres unmarked)	95.4
COc1ccc(N2C(=O)c3[nH]nc(CC(C)C)c3C2c2cccc(Br)c2)cc1 (centres unmarked)	97
CC(C)Cc1n[nH]c2c1C(c1ccccc1Cl)N(c1ccc3c(c1)OCO3)C2=O (centres unmarked)	98.0
COc1ccc(N2C(=O)c3[nH]nc(CC(C)C)c3C2C2CCCC2)cc1 (centres unmarked)	96.3
COc1ccc(N2C(=O)c3[nH]nc(CC(C)C)c3C2C2CCN(Cc3ccccc3)CC2)cc1 (centres unmarked)	94.8
COc1ccc(N2C(=O)c3[nH]nc(CC(C)C)c3C2c2ccncn2)cc1 (centres unmarked)	76.8
COc1ccc(N2C(=O)c3[nH]nc(CC(C)C)c3C2c2cncc(OC)c2)cc1 (centres unmarked)	91.2
CC(C)Cc1n[nH]c2c1C(c1ccc(F)cc1)N(c1ccccn1)C2=O (centres unmarked)	96.6
COc1ccc(N2C(=O)c3[nH]nc(CC(C)C)c3C2c2ccc(F)cc2F)cc1 (centres unmarked)	96.1
CC(C)Cc1n[nH]c2c1C(c1ccc(F)cc1)N(c1ccc(F)cc1)C2=O (centres unmarked)	97.7
CC(C)Cc1n[nH]c2c1C(c1ccc(F)cc1)N(CCN1CCCC1)C2=O (centres unmarked)	76.7
CC(C)Cc1n[nH]c2c1C(c1ccc(F)cc1)N(CC1CCN(C)C1)C2=O (centres unmarked)	77.5
